Could you please report measured cytotoxicity for the items listed next?
- assay text: cytotoxicity in HPDE-C7 cells, cell-based, fluorescence, HTS (AID 430);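 also: cells exposed to compound for 48 hours before viability readout; 0% = vehicle and 100% = reference cytotoxic drug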
- setup conditions: HPDE-C7 pancreatic duct cells viability, at 10 µM, hits give high values
In all, about 63,000 compounds went through this assay and about 1,100 (1.7%) were called active. This excerpt belongs to a sample that is enriched for actives. Measured potencies and affinities stand elsewhere.
Expressed in %, but write only the number.

The reported cytotoxicity of the molecule CCOC(=O)C1=C(c2ccccc2)Nc2ncnn2C1c1ccccn1 (centres undefined) was -3.2

The reported cytotoxicity of the molecule `CCOC(=O)N1CCN(C(=O)c2ccc3c(=O)n(Cc4ccc(OC)cc4)c(=S)[nH]c3c2)CC1` was -14.8

The reported cytotoxicity of the molecule Cc1nn(C)c(C)c1S(=O)(=O)N1CCCC(C(=O)NCC2COc3ccccc3O2)C1 (centres undefined) was -4

The reported cytotoxicity of the molecule `COc1ccccc1N1CCN(c2nc(-c3ccccc3)cc(C(F)(F)F)n2)CC1` was 10.1

The reported cytotoxicity of the molecule `CC1(C)CC(=O)C(C=Nc2ccccc2)=C(O)C1` was 2

The reported cytotoxicity of the molecule CCOc1cc(C2NC(=O)NC(C)=C2C(=O)OC(C)CC)cc(Br)c1O (centres undefined) was 3.2

The reported cytotoxicity of the molecule `Cc1cccc2sc(NC(=O)CNS(=O)(=O)c3ccc(Br)s3)nc12` was 1.3

The reported cytotoxicity of the molecule `COC(=O)c1c(NC(C)=O)sc2c1CCCC2` was -2

The reported cytotoxicity of the molecule `O=C(c1cnc2n(c1=O)CCS2)N1CCN(c2ccc(Cl)c(Cl)c2)CC1` was -3.5

The reported cytotoxicity of the molecule `CCOC(=O)Nc1ccc2c(c1)N(C(=O)CCN1CCOCC1)c1ccccc1S2` was -7.9

The reported cytotoxicity of the molecule `Cc1cccc2sc(NC(=O)CN(C)S(=O)(=O)c3cccs3)nc12` was 14.9

The reported cytotoxicity of the molecule `Cc1nc(N2CCN(c3ccccc3)CC2)[nH]c(=O)c1Cc1cccc2ccccc12` was 7.5

The reported cytotoxicity of the molecule `O=C(CN(C(=O)CNC(=O)c1ccco1)c1ccc2c(c1)OCO2)NC1CCCCC1` was -31.1

The reported cytotoxicity of the molecule CCCOc1ccc(C2C(=O)N(C3CCCCC3)CC(=O)N2CCC)cc1OC (centres undefined) was -24.3

The reported cytotoxicity of the molecule `CCNc1c2c3c(cccc3n(C)c1=O)C(=O)c1ccccc1-2` was 53.8

The reported cytotoxicity of the molecule `CCOC(=O)CCC(=O)Nc1ccc(S(=O)(=O)N2CCCC2)cc1` was -1.2

The reported cytotoxicity of the molecule `COc1ccc(N2CCN(c3nc4c(c(=O)[nH]c(=O)n4C)n3CCCc3ccccc3)CC2)cc1` was -7.6

The reported cytotoxicity of the molecule `CCOc1cccc(C(=O)Nc2cccc(-c3nc4ncccc4o3)c2C)c1` was 4.2

The reported cytotoxicity of the molecule CCOC(=O)Nc1ccc2c(c1)N(C(=O)CCN1CCOCC1)c1ccccc1S2=O (centres undefined) was 85.2

The reported cytotoxicity of the molecule `CCOC(=O)c1sc(NC(=O)CSc2nnnn2-c2ccccc2)nc1C` was -4.9

The reported cytotoxicity of the molecule `CCN(CC)c1ccc(NC(=O)c2cc(OC)cc(OC)c2)c(C)c1` was 53.5

The reported cytotoxicity of the molecule `CCOc1nc(-c2ccccc2)ccc1-c1noc(-c2cccnc2)n1` was -30.6

The reported cytotoxicity of the molecule `O=C(CCCCCN1C(=O)CCC1=O)Nc1ncn[nH]1` was -2.1

The reported cytotoxicity of the molecule `Nc1c(C(=O)NCc2ccco2)sc2nc3c(cc12)C(=O)CCC3` was 56.5

The reported cytotoxicity of the molecule `COc1cc(OC)cc(C(=O)N2CCC(n3c(C)nc4cc(F)ccc43)CC2)c1` was 3

The reported cytotoxicity of the molecule `Cc1ccc(S(=O)(=O)N(CC(=O)O)Cc2ccccc2)cc1` was -7.6

The reported cytotoxicity of the molecule `O=C(CSc1nnc(-c2ccccc2Br)o1)N1CCN(C(=O)c2ccco2)CC1` was -13.5

The reported cytotoxicity of the molecule `COC(=O)C(C(=O)OC)C(C(C)C)C(C(=O)OC)C(=O)OC` was 5.9

The reported cytotoxicity of the molecule `COC(=O)c1c(NC(=O)c2ccc(Br)s2)sc2c1CCC2` was 53.5

The reported cytotoxicity of the molecule `CCN(CC)c1ccc(NC(=O)c2c(OC)cccc2OC)c(C)c1` was 0.4

The reported cytotoxicity of the molecule `CCOC(=O)c1oc2ccc(S(=O)(=O)N3CCC(C)CC3)cc2c1C` was 16.8

The reported cytotoxicity of the molecule `CCOC(=O)c1ccc(NC(=O)c2cc(S(=O)(=O)N3CCOCC3)ccc2O)cc1` was 3.3

The reported cytotoxicity of the molecule `COc1ccc(-c2coc3c(CN4CCCCC4)c(O)c(CN4CCCCC4)c(O)c3c2=O)cc1` was 53.1

The reported cytotoxicity of the molecule `CCOc1cccc(C(=O)Nc2ccc(N(CC)CC)cc2)c1` was 79.8

The reported cytotoxicity of the molecule `CCOC(=O)Cn1nc(C)c(-c2ccccc2)c1N` was -9.4

The reported cytotoxicity of the molecule `O=C(CSc1ncn(-c2ccccc2)n1)Nc1nc2ccccc2s1` was 9.1

The reported cytotoxicity of the molecule `CCC(=O)N1CCN(c2ccc(NC(=O)c3ccc4c(c3)OCO4)cc2)CC1` was -5.7

The reported cytotoxicity of the molecule `CCOc1cccc(C(=O)Nc2ccc(N3CCN(S(C)(=O)=O)CC3)cc2)c1` was -6.2

The reported cytotoxicity of the molecule `COc1ccccc1N1CCN(c2cc(N3CCCC3)nc(C)n2)CC1` was 2.7

The reported cytotoxicity of the molecule `COc1ccc2cc3c(N)c(C(=O)NCc4ccco4)sc3nc2c1` was -0.3

The reported cytotoxicity of the molecule `COc1ccc(CN(C)C2CCCCC2)cc1` was 12.6

The reported cytotoxicity of the molecule `COc1cc2c(cc1OC)C1=C(C#N)CN(CC(=O)O)CN1CC2` was -4.5

The reported cytotoxicity of the molecule `Cn1c(=O)c2c(-c3ccccc3)n(CCCN3CCOCC3)cc2n(C)c1=O` was -14

The reported cytotoxicity of the molecule `COC(=O)c1cccc(S(=O)(=O)N(Cc2ccco2)Cc2cc3ccc(OC)cc3[nH]c2=O)c1` was -2.3
